Numbers sourced from ChEMBL document CHEMBL2203109.

- tested.on: Cell division protein FtsZ (Staphylococcus aureus)
- assay.remarks: Induction of Staphylococcus aureus FtsZ polymerization at 40 ug/ml measured for 60 mins by microtiter plate-based light scattering assay
Activity calls are given as the source filed them. The rule behind the calls is not given here.
Valid outcomes are listed here; reply with one: active, inactive

State the result this test recorded for "COc1cc2cc(-c3cccc(C(C)(C)C)c3)nc(C/N=C(/C)N)c2cc1OC" . active

Could you do the same for "COc1cc2cc(-c3cccc(C(C)(C)C)c3)nc(CCN=C(N)N)c2cc1OC" , please? active

Request: "COc1cc2cc(-c3cccc(-c4ccc(C(C)(C)C)cc4)c3)[n+](C)c(C)c2cc1OC.[I-]" active

What do you get for "COc1cc2cc(-c3cccc(-c4ccc(-c5ccccc5)cc4)c3)[n+](C)c(C)c2cc1OC.[I-]" ? active

Continue with "COc1ccc2cc3[n+](cc2c1OC)CCc1cc2c(cc1-3)OCO2" inactive

Another: "COc1cc2cc(-c3cccc(C(C)(C)C)c3)nc(CN=C(N)N)c2cc1OC" active

Do the same for "COc1cc2cc(-c3cccc(-c4ccc(C(C)(C)C)cc4)c3)nc(C)c2cc1OC" please inactive

Consider next the compound "COc1cc2cc(-c3cccc(-c4ccccc4)c3)nc(CCN=C(N)N)c2cc1OC" in the same way. active

Also, "COc1cc2cc(-c3cccc(C(C)(C)C)c3)nc(CCN)c2cc1OC" please. active

Then this compound: "CN[C@H](CC(C)C)C(=O)N[C@H]1C(=O)N[C@@H](CC(N)=O)C(=O)N[C@H]2C(=O)N[C@H]3C(=O)N[C@H](C(=O)N[C@H](C(=O)O)c4cc(O)cc(O)c4-c4cc3ccc4O)[C@H](O)c3ccc(c(Cl)c3)Oc3cc2cc(c3O[C@@H]2O[C@H](CO)[C@@H](O)[C@H](O)[C@H]2O[C@H]2C[C@](C)(N)[C@H](O)[C@H](C)O2)Oc2ccc(cc2Cl)[C@H]1O" inactive

Request: "COc1cc2cc(-c3cccc(C(C)(C)C)c3)nc(C)c2cc1OC" inactive

====

Record form. Attribute: MIC90. Fill in for each entry.
- System: Staphylococcus aureus
- assay.remarks: Antibacterial activity against log-phase methicillin-resistant Staphylococcus aureus ATCC 33591 assessed as growth inhibition after 24 hrs by broth microdilution method
- Assay type: functional
- run.parameters: ATCC 33591, 24 h
Field: numeric (µg/mL). Do not append units.

Checklist item: MIC90 tested on Staphylococcus aureus, entry "COc1cc2cc(-c3cccc(C(C)(C)C)c3)nc(CN)c2cc1OC" , value? 8

And "COc1cc2cc(-c3cccc(-c4ccccc4)c3)nc(CN)c2cc1OC" ? 16

// repeat for "COc1cc2cc(-c3cccc(C(C)(C)C)c3)nc(C/N=C(/C)N)c2cc1OC" and report 8

Can you check "COc1cc2cc(-c3cccc(C(C)(C)C)c3)[n+](C)c(C)c2cc1OC.[I-]" next? 16

How about this compound: "COc1cc2cc(-c3cccc(-c4ccccc4)c3)nc(N=C(N)N)c2cc1OC" 4

What about "CN(C)[C@@H]1C(O)=C(C(N)=O)C(=O)[C@@]2(O)C(O)=C3C(=O)c4c(O)cccc4[C@@](C)(O)[C@H]3C[C@@H]12" ? 64

// repeat for "COc1cc2cc(-c3cccc(-c4ccccc4)c3)[n+](C)c(C)c2cc1OC.[I-]" and report 32

Also, "COc1cc2cc(-c3cccc(-c4ccc(C(C)(C)C)cc4)c3)nc(CN=C(N)N)c2cc1OC" please. 4

Also, "COc1cc2cc(-c3cccc(C(C)(C)C)c3)nc(CCN=C(N)N)c2cc1OC" please. 4

Query "COc1cc2cc(-c3cccc(-c4ccccc4)c3)[n+](C)c(N(C)C)c2cc1OC.[I-]" next 32

Same lookup for "C[n+]1cc2c3c(ccc2c2ccc4cc5c(cc4c21)OCO5)OCO3" , please. 2

Ok, now "COc1cc2cc(-c3cccc(C(C)(C)C)c3)nc(CN=C(N)N)c2cc1OC" 8

Proceed to "COc1cc2cc(-c3cccc(C(C)(C)C)c3)nc(CCN)c2cc1OC" 16

Follow-up entry: "COc1ccc2c(c[n+](C)c3c4cc5c(cc4ccc23)OCO5)c1OC" 4

What do we get for "CN[C@H](CC(C)C)C(=O)N[C@H]1C(=O)N[C@@H](CC(N)=O)C(=O)N[C@H]2C(=O)N[C@H]3C(=O)N[C@H](C(=O)N[C@H](C(=O)O)c4cc(O)cc(O)c4-c4cc3ccc4O)[C@H](O)c3ccc(c(Cl)c3)Oc3cc2cc(c3O[C@@H]2O[C@H](CO)[C@@H](O)[C@H](O)[C@H]2O[C@H]2C[C@](C)(N)[C@H](O)[C@H](C)O2)Oc2ccc(cc2Cl)[C@H]1O" ? 2

Next compound up: "COc1cc2cc(-c3cccc(-c4ccccc4)c3)[n+](C)cc2cc1OC.[I-]" 64

====

Kindly state pIC50 for each of the entries shown.
- System: MDCK
- assay.remarks: Cytotoxicity against dog MDCK cells after 4 days by MTT assay
- Type: cell-based
- run.parameters: Canis lupus familiaris, 96 h
In simple prose, pIC50 is minus the logarithm base ten of a concentration in moles per litre.

Bench note: what pIC50 did "COc1cc2cc(-c3cccc(C(C)(C)C)c3)nc(CCN)c2cc1OC" show? 5.66

Same for "COc1cc2cc(-c3cccc(-c4ccccc4)c3)nc(CN)c2cc1OC" 5.15

// repeat for "COc1cc2cc(-c3cccc(-c4ccccc4)c3)nc(N=C(N)N)c2cc1OC" and report 5.66

====

Cell division protein FtsZ (Staphylococcus aureus, UniProt P0A031) measurements of Kd, listed per entry.
Sequence (P0A031 whole entry): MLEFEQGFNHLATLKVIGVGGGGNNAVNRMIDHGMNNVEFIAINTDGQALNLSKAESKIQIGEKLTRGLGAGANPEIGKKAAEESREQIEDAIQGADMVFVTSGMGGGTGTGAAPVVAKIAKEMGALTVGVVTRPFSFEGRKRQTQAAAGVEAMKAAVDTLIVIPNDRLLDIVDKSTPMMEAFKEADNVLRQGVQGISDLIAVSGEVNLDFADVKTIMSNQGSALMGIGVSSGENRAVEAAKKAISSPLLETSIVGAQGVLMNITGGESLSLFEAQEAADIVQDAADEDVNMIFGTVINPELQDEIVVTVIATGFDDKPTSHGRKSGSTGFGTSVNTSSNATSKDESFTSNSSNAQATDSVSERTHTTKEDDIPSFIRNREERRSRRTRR
The figure you give is taken to be in µM; do not add the unit.

Please tell me: Kd of "COc1cc2cc(-c3cccc(-c4ccc(C(C)(C)C)cc4)c3)[n+](C)c(C)c2cc1OC.[I-]" , system Cell division protein FtsZ (Staphylococcus aureus, UniProt P0A031)? 5.4

Could you do the same for "COc1cc2cc(-c3cccc(-c4ccc(-c5ccccc5)cc4)c3)[n+](C)c(C)c2cc1OC.[I-]" , please? 2

====

I'd appreciate it if you could supply MIC90 values for the items below.
- System: Staphylococcus aureus
- assay.remarks: Antibacterial activity against log-phase methicillin-resistant Staphylococcus aureus ATCC 33591 assessed as growth inhibition after 24 hrs by broth microdilution method
- Assay type: functional
- run.parameters: ATCC 33591, 24 h
Record the value in mg/L, omitting the unit from your answer.

If you can, please state the reported MIC90 value of "COc1cc2cc(-c3cccc(-c4ccccc4)c3)nc(CCN=C(N)N)c2cc1OC" . 2

Now consider "COc1cc2cc(-c3cccc(-c4ccccc4)c3)nc(CCN)c2cc1OC" and answer again. 4

Continue with "COc1cc2cc(-c3cccc(-c4ccccc4)c3)nc(CN=C(N)N)c2cc1OC" 2

What about this compound? "COc1cc2cc(-c3cccc(-c4ccc(-c5ccccc5)cc4)c3)[n+](C)c(C)c2cc1OC.[I-]" 2

And then "COc1cc2cc(-c3cccc(-c4ccccc4)c3)[n+](C)c(C)c2c(OC)c1OC.[I-]" , what is it? 8

Similarly, "COc1cc2cc(-c3cccc(-c4ccc(C(C)(C)C)cc4)c3)[n+](C)c(C)c2cc1OC.[I-]" ? 8

====

- tested.on: Cell division protein FtsZ (Staphylococcus aureus)
- assay.remarks: Residual Staphylococcus aureus GTPase activity assessed as inorganic phosphate release upon GTP hydrolysis at 40 ug/ml preincubated for 10 mins before substrate addition measured after 2 hrs by malachite green based colorimetric analysis
measured.attribute: residual activity (%)
Write down the numeric answer in % and omit the unit.

Returns the measured residual activity for the input compound. Input: "COc1cc2cc(-c3cccc(C(C)(C)C)c3)nc(C/N=C(/C)N)c2cc1OC" 64.8

Also, "COc1cc2cc(-c3cccc(-c4ccc(-c5ccccc5)cc4)c3)[n+](C)c(C)c2cc1OC.[I-]" please. 30.2

# iterate: "COc1cc2cc(-c3cccc(-c4ccc(C(C)(C)C)cc4)c3)[n+](C)c(C)c2cc1OC.[I-]" 14.9

Further, for "COc1cc2cc(-c3cccc(C(C)(C)C)c3)nc(CCN)c2cc1OC" ? 59.7

Quick one: CN[C@H](CC(C)C)C(=O)N[C@H]1C(=O)N[C@@H](CC(N)=O)C(=O)N[C@H]2C(=O)N[C@H]3C(=O)N[C@H](C(=O)N[C@H](C(=O)O)c4cc(O)cc(O)c4-c4cc3ccc4O)[C@H](O)c3ccc(c(Cl)c3)Oc3cc2cc(c3O[C@@H]2O[C@H](CO)[C@@H](O)[C@H](O)[C@H]2O[C@H]2C[C@](C)(N)[C@H](O)[C@H](C)O2)Oc2ccc(cc2Cl)[C@H]1O [VANCOMYCIN] 99.7

Another compound: "COc1cc2cc(-c3cccc(C(C)(C)C)c3)nc(CCN=C(N)N)c2cc1OC" 66.5

Repeat with "COc1cc2cc(-c3cccc(C(C)(C)C)c3)nc(CN=C(N)N)c2cc1OC" 60.4

// next record "COc1cc2cc(-c3cccc(-c4ccccc4)c3)nc(CCN=C(N)N)c2cc1OC" 56
